- experimental.target: α1A-AR (Homo sapiens, UniProt P35348)
- Construct: expressed in transfected cells; host or cells: HEK293
- Sequence (P35348 whole entry): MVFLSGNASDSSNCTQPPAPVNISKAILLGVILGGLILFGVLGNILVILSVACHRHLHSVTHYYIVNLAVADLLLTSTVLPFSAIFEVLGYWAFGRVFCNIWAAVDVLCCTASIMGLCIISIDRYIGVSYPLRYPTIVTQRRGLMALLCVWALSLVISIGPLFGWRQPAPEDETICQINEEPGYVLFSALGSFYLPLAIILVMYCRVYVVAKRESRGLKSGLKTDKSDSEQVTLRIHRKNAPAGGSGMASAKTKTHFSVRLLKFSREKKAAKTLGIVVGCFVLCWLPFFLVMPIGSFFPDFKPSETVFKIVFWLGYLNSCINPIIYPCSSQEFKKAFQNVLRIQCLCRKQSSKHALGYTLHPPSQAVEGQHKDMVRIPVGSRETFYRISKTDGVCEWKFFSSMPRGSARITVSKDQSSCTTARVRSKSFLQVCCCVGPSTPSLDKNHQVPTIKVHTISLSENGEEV
- method.notes: Tag-lite receptor binding assay, HEK293 cells expressing SNAP-α1A-AR
- condition.info: ratio of Tag-lite binding values
List of α1B/α1A values.
# print the numeric value only

compound="C[C@H](Cc1cc2c(c(C(N)=O)c1)N(CCCO)CC2)NCCOc1ccccc1OCC(F)(F)F [Silodosin, reference compound]" recorded_result=8.7
compound="COc1cc2c(cc1OCC(F)F)C[C@H]1c3cc4c(cc3CCN1C2)OCO4 [DC037018]" recorded_result=51.2
compound="COc1cc2c(cc1OCc1ccccc1)C[C@H]1c3cc4c(cc3CCN1C2)OCO4 [DC037016]" recorded_result=33.8

Recall the recorded α1B/α1A for COc1cc2c(cc1OC)CN1CCc3cc4c(cc3[C@@H]1C2)OCO4 [DC037009] with α1A-AR (Homo sapiens, UniProt P35348) and state it.
45.3
